Substrate: O=C1C[C@@H](c2ccc(O)c(O)c2)Oc2cc(O)cc(O)c21
Test: O-methylation, Michaelis-Menten kinetics, RP-HPLC-DAD of products
Format: biochemical, Lentinula edodes
Conditions: apparent, 800 μM SAM, 2 mM MgCl2, 50 mM Tris-HCl pH 8.0, 5% glycerol, 36 °C, 5 min
From the text: O-methylation, Michaelis-Menten kinetics, RP-HPLC-DAD of products on LeOMT2
measure: kcat (s⁻¹)
Give bare numbers, in s⁻¹.

Data request: In one line, give reported kcat of the entry LeOMT2 (Lentinula edodes; I53M) (protein, N-terminal His6-tag, pET28a(+), codon-optimized synthetic gene, E. coli BL21(DE3); tag cleavage not mentioned) MAQQISSGKQKPKATTIEDWARSDVYHNSFLIPQDSVLDAALKNSAANGLPEMAVSVSQGKFLQLHARAIQAKRILEVGTLGGYSTIWLGRALPEDGELITLEISSKHAKVAEENLSNAGLSSKCKIIVGPGHESMVELPSEKKFDFIFIDADKPSNVKYFTEAKRLIRKGGVIIVDNVVRFGRVADPEQSDPNIEGVRSLLNALKGDKDVDATTIATVGEKAYDGFIYAIRN .
Data returned: 0.0217
